Test system: Leishmania donovani
PROTOCOL: Antileishmanial activity against promastigote form of Leishmania donovani after 48 hrs by Alamar Blue assay
Format: functional, organism-based
ASSAY ENDPOINT: IC90 (µg/mL)
Numbers only, in µg/mL.

// worked examples, IC90 included
{"COMPOUND": "CC(=O)OC/C=C(\\C)CC(C)CC(C)CCCCCCCCC(C)C (centres undefined)", "UNITS": "µg/mL", "IC90": 6}
{"COMPOUND": "N=C(N)c1ccc(OCCCCCOc2ccc(C(=N)N)cc2)cc1", "UNITS": "µg/mL", "IC90": 2.03}

I have 2 compounds here; please give me IC90 for each one.
1. C[C@@H]1[C@H](O)[C@@H](C)/C=C/C=C/C=C/C=C/C=C/C=C/C=C/[C@H](O[C@@H]2O[C@H](C)[C@@H](O)[C@H](N)[C@@H]2O)C[C@@H]2O[C@](O)(C[C@@H](O)C[C@@H](O)[C@H](O)CC[C@@H](O)C[C@@H](O)CC(=O)O[C@H]1C)C[C@H](O)[C@H]2C(=O)O
2. C/C(=C\CO)CC(C)CC(C)CCCCCCCCC(C)C (centres undefined)

Result:
[0.65, 30]
